test: pH solubility; format: physicochemical; conditions: aqueous solution, pH 1, simulated gastric fluid, thermodynamic from solid; read-out: Solubility Concentration

# Molecule, Display Unit, solubility at 24 h
data = [
    ("COc1cc2c(NC3CCN(C(C)C)CC3)nc(N3CCC(F)(F)CC3)nc2cc1OCCCN1CCCC1 [Compound 400, reference compound]", "mg/mL", 22.8),
]

====

test: PAMPA permeability; settings: PAMPA, PAMPA permeability Classification, 20 μM donor; 5 hours at RT

# Compound, Papp at 5 h, 20 μM
records = [
    ("COc1cc2c(NC3CCOCC3)nc(N3CCCN(C)CC3)nc2cc1OCCCN1CCCC1 [Compound 237]", "< 0.055 ×10⁻⁶ cm/s"),
    ("COc1cc2c(NC3CCNCC3)nc(N3CCC(F)(F)CC3)nc2cc1OCCCN1CCCC1 [Compound 8]", "< 0.055 ×10⁻⁶ cm/s"),
    ("COc1cc2c(NC3CCN(C(C)C)CC3)nc(N3CCCN(C)CC3)nc2cc1OCCCN1CCCCC1 [Compound 403, reference compound]", "< 0.055 ×10⁻⁶ cm/s"),
    ("COCCNc1nc(N2CCC(F)(F)CC2)nc2cc(OCCCN3CCCC3)c(OC)cc12 [Compound 4]", "> 1.5 ×10⁻⁶ cm/s"),
]

====

test: PAMPA permeability; settings: PAMPA, Permeability, Pe, 20 μM donor in PBS/MeOH 90:10; 5 hours at RT
Recorded Endpoint: Papp at 5 h, 20 μM (×10⁻⁶ cm/s)

# Compound, Recorded Endpoint, Display Unit, Obs Value
records = [
    ("COc1cc2c(NC3CCN(C4CCCCC4)CC3)nc(N3CCCN(C(C)C)CC3)nc2cc1OCCCN1CCCCC1 [Compound 402, reference compound]", "Papp at 5 h, 20 μM", "×10⁻⁶ cm/s", 0.00971),
    ("COCCNc1nc(N2CCC(F)(F)CC2)nc2cc(OCCCN3CCCC3)c(OC)cc12", "Papp at 5 h, 20 μM", "×10⁻⁶ cm/s", 1.77),
    ("COc1cc2c(NC3CCN(C(C)C)CC3)nc(N3CCOCC3)nc2cc1OCCCN1CCCC1 [Compound 404, reference compound]", "Papp at 5 h, 20 μM", "×10⁻⁶ cm/s", 0.00624),
    ("COc1cc2c(NC3CCN(C(C)C)CC3)nc(N3CCCN(C)CC3)nc2cc1OCCCN1CCCCC1 [Compound 403, reference compound]", "Papp at 5 h, 20 μM", "×10⁻⁶ cm/s", 0.0096),
    ("COc1cc2c(NC3CCS(=O)(=O)CC3)nc(N3CCCC3)nc2cc1OCCCN1CCCC1", "Papp at 5 h, 20 μM", "×10⁻⁶ cm/s", 0.00298),
    ("COCCN1CCC(Nc2nc(N3CCC(F)(F)CC3)nc3cc(OCCCN4CCCC4)c(OC)cc23)CC1", "Papp at 5 h, 20 μM", "×10⁻⁶ cm/s", 0.451),
]

====

Reported values of Papp at 5 h, 20 μM for individual entries
test: PAMPA permeability; conditions: PAMPA, PAMPA permeability Classification, 20 μM donor; 5 hours at RT
Recorded Endpoint: Papp at 5 h, 20 μM

# Compound, Obs Value
records = [
    ("COc1cc2c(NC3CCOCC3)nc(N3CCCC3)nc2cc1OCCCN1CCCC1", "< 0.055 ×10⁻⁶ cm/s"),
    ("COc1cc2c(NC3CCOCC3)nc(N3CCN(C)CC3)nc2cc1OCCCN1CCCC1", "< 0.055 ×10⁻⁶ cm/s"),
    ("COc1cc2c(Nc3ccncc3)nc(N3CCC(F)(F)CC3)nc2cc1OCCCN1CCCC1", "0.055 to 1.5 ×10⁻⁶ cm/s"),
    ("COc1cc2c(NC3CCOCC3)nc(N3CCOCC3)nc2cc1OCCCN1CCCC1", "0.055 to 1.5 ×10⁻⁶ cm/s"),
    ("COc1cc2c(NC3CCN(C4CCCCC4)CC3)nc(N3CCCN(C(C)C)CC3)nc2cc1OCCCN1CCCCC1 [Compound 402, reference compound]", "< 0.055 ×10⁻⁶ cm/s"),
    ("COc1cc2c(NC3CCN(C(C)C)CC3)nc(N3CCC3)nc2cc1OCCCN1CCCC1", "< 0.055 ×10⁻⁶ cm/s"),
    ("COc1cc2c(NC3CCN(C(C)C)CC3)nc(N3CCOCC3)nc2cc1OCCCN1CCCC1 [Compound 404, reference compound]", "< 0.055 ×10⁻⁶ cm/s"),
    ("COc1cc2c(NC3CCOCC3)nc(N3CCC(F)(F)CC3)nc2cc1OCCCN1CCCC1", "> 1.5 ×10⁻⁶ cm/s"),
    ("COc1cc2c(NC3CCN(C(C)C)CC3)nc(-n3cccn3)nc2cc1OCCCN1CCCC1", "< 0.055 ×10⁻⁶ cm/s"),
    ("COc1cc2c(NC3CCS(=O)(=O)CC3)nc(N3CCCN(C)CC3)nc2cc1OCCCN1CCCC1", "< 0.055 ×10⁻⁶ cm/s"),
    ("COc1cc2c(NC3CCOCC3)nc(N3CCC3)nc2cc1OCCCN1CCCC1", "0.055 to 1.5 ×10⁻⁶ cm/s"),
    ("COc1cc2c(NC3COC3)nc(N3CCC(F)(F)CC3)nc2cc1OCCCN1CCCC1", "0.055 to 1.5 ×10⁻⁶ cm/s"),
    ("COc1cc2c(NC3CCS(=O)(=O)CC3)nc(N3CCC(F)(F)CC3)nc2cc1OCCCN1CCCC1", "< 0.055 ×10⁻⁶ cm/s"),
    ("COc1cc2c(NC3CCOCC3)nc(N3CCS(=O)(=O)CC3)nc2cc1OCCCN1CCCC1", "< 0.055 ×10⁻⁶ cm/s"),
    ("COc1cc2c(NC3CCS(=O)(=O)CC3)nc(N3CCOCC3)nc2cc1OCCCN1CCCC1", "< 0.055 ×10⁻⁶ cm/s"),
    ("COc1cc2c(NC3CCS(=O)(=O)CC3)nc(N3CCC(F)(F)CC3)nc2cc1C#CCN1CCCC1", "0.055 to 1.5 ×10⁻⁶ cm/s"),
    ("COc1cc2c(NC3CCN(C(C)C)CC3)nc(C#N)nc2cc1OCCCN1CCCC1", "< 0.055 ×10⁻⁶ cm/s"),
    ("COc1cc2c(N[C@@H]3CCCNC3)nc(N3CCCC3)nc2cc1OCCCN1CCCC1", "< 0.055 ×10⁻⁶ cm/s"),
    ("COc1cc2c(NC3CCS(=O)(=O)CC3)nc(N3CCN(C)CC3)nc2cc1OCCCN1CCCC1", "< 0.055 ×10⁻⁶ cm/s"),
    ("COc1cc2c(NC3CCS(=O)(=O)CC3)nc(N3CCCC3)nc2cc1OCCCN1CCCC1", "< 0.055 ×10⁻⁶ cm/s"),
    ("COc1cc2c(NC3CCS(=O)(=O)CC3)nc(N3CCS(=O)(=O)CC3)nc2cc1OCCCN1CCCC1", "< 0.055 ×10⁻⁶ cm/s"),
    ("COc1cc2c(NCC3CCN(C)CC3)nc(N3CCC(F)(F)CC3)nc2cc1OCCCN1CCCC1", "< 0.055 ×10⁻⁶ cm/s"),
    ("COc1cc2c(NCC(N)=O)nc(N3CCC(F)(F)CC3)nc2cc1OCCCN1CCCC1", "< 0.055 ×10⁻⁶ cm/s"),
    ("COc1cc2c(N[C@H]3CCCNC3)nc(N3CCCC3)nc2cc1OCCCN1CCCC1", "< 0.055 ×10⁻⁶ cm/s"),
    ("COCCN1CCC(Nc2nc(N3CCC(F)(F)CC3)nc3cc(OCCCN4CCCC4)c(OC)cc23)CC1", "0.055 to 1.5 ×10⁻⁶ cm/s"),
    ("COc1cc2c(NC3CCN(C(C)C)CC3)nc(-n3ccnc3)nc2cc1OCCCN1CCCC1", "< 0.055 ×10⁻⁶ cm/s"),
    ("COc1cc2c(Nc3ccncc3)nc(-n3ccnc3)nc2cc1OCCCN1CCCC1", "< 0.055 ×10⁻⁶ cm/s"),
]
